Biological target: biotinylated labeled human GPC3 protein (produced in-house) (human, UniProt P51654 25-559, limits assumed, biotinylated (Dojindo, Cat. No. LK03); sites not stated)
Assay: ELISA, biotinylated human GPC3 protein

Binder: hAb007LH1L1a (antibody, human IgG1, V domains shown, Humanized F3.81.19; VH H1 + VL L1a; expressed as human IgG1) VH: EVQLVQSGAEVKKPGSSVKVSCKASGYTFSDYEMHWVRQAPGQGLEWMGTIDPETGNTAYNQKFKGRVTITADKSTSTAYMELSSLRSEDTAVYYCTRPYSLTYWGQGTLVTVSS VL: DIVMTQTPLSLPVTPGEPASISCRSSQSFVHSDGDTYLQWYLQKPGQSPQLLIYKVSNRFSGVPDRFSGSGSGTDFTLKISRVEAEDVGVYYCFQGSHVPYTFGQGTKLEIK
Units Text: OD450
OD450 at 0.004 nM: 0.112
--
Binder: hAb007LH3L1 (antibody, human IgG1, V domains shown, Humanized F3.81.19; VH H3 + VL L1; expressed as human IgG1) VH: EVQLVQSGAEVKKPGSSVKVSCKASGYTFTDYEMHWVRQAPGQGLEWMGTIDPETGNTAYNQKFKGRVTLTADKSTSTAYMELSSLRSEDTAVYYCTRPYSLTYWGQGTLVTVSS VL: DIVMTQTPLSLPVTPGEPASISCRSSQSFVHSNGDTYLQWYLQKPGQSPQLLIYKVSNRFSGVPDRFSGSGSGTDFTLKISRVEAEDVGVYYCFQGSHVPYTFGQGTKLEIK
Units Text: OD450
OD450 at 0.004 nM: 0.133
--
Binder: hAb001H2L1 (antibody, human IgG1, V domains shown, Humanized F2.169.2; VH H2 + VL L1; expressed as human IgG1) VH: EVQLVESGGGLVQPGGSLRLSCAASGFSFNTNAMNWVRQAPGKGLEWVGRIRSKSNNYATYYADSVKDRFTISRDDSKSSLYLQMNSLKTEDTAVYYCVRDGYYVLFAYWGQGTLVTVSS VL: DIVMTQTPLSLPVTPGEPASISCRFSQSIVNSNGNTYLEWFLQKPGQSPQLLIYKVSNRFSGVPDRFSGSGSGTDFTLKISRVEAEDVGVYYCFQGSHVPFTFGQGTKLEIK
Units Text: OD450
OD450 at 0.004 nM: 0.324
--
Binder: hAb003LH2L1b (antibody, human IgG1, V domains shown, Humanized F2.154.1; VH H2 + VL L1b; expressed as human IgG1) VH: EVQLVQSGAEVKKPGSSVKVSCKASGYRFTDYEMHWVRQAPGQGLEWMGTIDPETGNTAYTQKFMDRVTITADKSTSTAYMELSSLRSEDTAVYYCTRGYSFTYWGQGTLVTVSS VL: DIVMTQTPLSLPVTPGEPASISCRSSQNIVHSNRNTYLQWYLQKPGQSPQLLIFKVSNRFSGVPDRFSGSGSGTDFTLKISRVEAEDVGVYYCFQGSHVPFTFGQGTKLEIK
Units Text: OD450
OD450 at 0.004 nM: 0.372
--
Binder: hAb005LH3L1 (antibody, human IgG1, V domains shown, Humanized F3.54.12; VH H3 + VL L1; expressed as human IgG1) VH: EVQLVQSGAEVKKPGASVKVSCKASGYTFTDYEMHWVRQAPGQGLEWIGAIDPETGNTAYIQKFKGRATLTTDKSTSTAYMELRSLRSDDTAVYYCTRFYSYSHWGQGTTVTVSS VL: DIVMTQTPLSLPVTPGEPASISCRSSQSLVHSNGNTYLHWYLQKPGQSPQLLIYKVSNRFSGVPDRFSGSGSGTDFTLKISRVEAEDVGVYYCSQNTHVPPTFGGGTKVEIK
Units Text: OD450
OD450 at 0.004 nM: 0.162

The origin of these recorded values is patent US20260116991A1.
